B1: TRAF3IP2 (parent)
chain: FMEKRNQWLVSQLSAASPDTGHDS

Variants of: B1
Assay Protocol: protein stability index of a GFP-peptide fusion (GPS, HEK-293T) (PSI 1-6); higher = more stable;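 also: lentivirally expressed fusions sorted by FACS into six bins by GFP to DsRed ratio, PSI derived from sequencing read proportions per bin multiplied by bin number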
Condition Parameters: c terminus: a fixed tail appended
Overview of recorded protein stability index for various variants
The response must contain the number and no unit.

   changes  recorded_result
0     D23F             2.22
1     V10H             3.38
2     D23N             2.08
3     L13E              3.2
4      K4W              1.3

For this variant ( `T20N` ), measured protein stability index is 2.1

For this variant ( `L13A` ), measured protein stability index is 3.73

For this variant ( `A15D` ), measured protein stability index is 2.47

For this variant ( `Q7Y` ), measured protein stability index is 2.88

For this variant ( `V10M` ), measured protein stability index is 2.74

For this variant ( `V10C` ), measured protein stability index is 1.99

For this variant ( `M2T` ), measured protein stability index is 2.55

For this variant ( `G21Y` ), measured protein stability index is 2.08

For this variant ( `S14K` ), measured protein stability index is 2.41

For this variant ( `A15R` ), measured protein stability index is 3.45

For this variant ( `P18L` ), measured protein stability index is 1.93

For this variant ( `A15E` ), measured protein stability index is 2.73

For this variant ( `S11H` ), measured protein stability index is 2.63

For this variant ( `S14A` ), measured protein stability index is 2.34

For this variant ( `F1S` ), measured protein stability index is 4.37

For this variant ( `K4M` ), measured protein stability index is 2.51

For this variant ( `R5M` ), measured protein stability index is 2.94

For this variant ( `F1R` ), measured protein stability index is 4.48

For this variant ( `R5G` ), measured protein stability index is 1.71
